assay: In vivo pharmacokinetic study in male ICR mice (compound alone); settings: male, ICR, mouse, plasma, iv, 2 mg/kg, IV 2 mg/kg, individual mice 1#-3#; read-out: AUC0-∞
Experimental Endpoint: AUC(0-inf) (ng·h/mL)
One number for each entry, in ng·h/mL.

Enquiry: Data request, read-out AUC(0-inf), for Cc1cncc(C(=O)N2C[C@H]3CC[C@@H](C2)N3[C@H](c2cccc(F)c2)c2cn(CCc3ccsc3)nn2)c1 [Compound C5N17B]
Return: 81.1

----------
tested on: SARS‐CoV‐2 (hCoV‐19/Korea/KCDC06/2020, wild type); assay: microbe, parasite or virus in culture; type: cell-based; settings: Severe acute respiratory syndrome coronavirus 2, Calu-3, Calu‐3; read-out: EC50 ± SD, SARS‐CoV‐2 Wild‐type
Experimental Endpoint: EC50
# answer = value followed by unit

Enquiry: Recall the recorded EC50 for Cc1cncc(C(=O)N2C[C@H]3CC[C@@H](C2)N3[C@H](c2cccc(F)c2)c2cn(CCc3ccsc3)nn2)c1 [Compound C5N17B] with SARS‐CoV‐2 (hCoV‐19/Korea/KCDC06/2020, wild type) and state it.
Return: 119 nM

These measurements were taken from paper PMC11578313.
